Origin of values: ChEMBL document CHEMBL4513216

Assay: Toxicity liver stage against HepG2, at 10uM
Format: cell-based
Set-up: test concentration 10 uM, cell line HepG2-A16-CD81EGFP
Conditions: human, HepG2-A16-CD81EGFP cells; read-out: INHIBITION
Listing of recorded cytotoxicity at 10 µM by entry.
Could you kindly put the unit after your number?

Some compounds with known cytotoxicity at 10 µM results, for comparison:
• CC(=O)N1CCN([C@@H]2CC[C@@H](NC(=O)c3ccc(C)nc3)[C@H]2O)CC1 = -3.08%
• COC(=O)c1ccc(CNC(=O)CN2C[C@@H](NC(C)=O)[C@H](C(C)C)C2)o1 = -0.921%

// next item, cytotoxicity at 10 µM requested
Exercise: Suppose we examine the compound COC1CN(C(=O)Nc2ccccc2)CCC(=O)N(C)c2ccccc21 (stereo not drawn) ; what cytotoxicity at 10 µM value has been reported?
Key: -9.69%
